- ASSAY PROCEDURE: protein stability index of a GFP-peptide fusion (GPS, HEK-293T) (PSI 1-6); higher = more stable;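 further: 24-mer peptide tiles fused after GFP, lentivirally expressed, FACS-sorted into six equal bins by GFP/DsRed ratio, decoded by Illumina sequencing, PSI is the read-weighted mean bin number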
- RUN CONDITIONS: treatment: MLN4924 1 uM, 8 h; c terminus: a fixed tail appended
Catalogue of protein stability index readings, one per entry.
Answer with a bare number; do not write a unit.

Use these answered entries as a reference point.
# SEQUENCE STRING, protein stability index
data = [
    ("SLIEDLQRELEIPEQQVDMHDMLL [ZNF449]", 3.51),
    ("QWLQSTSGSQRHMVGQKDSVILSV [TLE6]", 2.29),
    ("VELARYLVDVRQEQLQGFNTRVRE [DNAAF3]", 2.77),
]

Any idea what its protein stability index is? The sequence is TSLGLTYDGMLSDVQSMPKTGILI [MAGEA10]
2.13

Form field: reported protein stability index of HSEGRVEVYYDGQWGTVCDDDFSI [LOXL2]
3.56

Name the reported protein stability index value associated with the sequence DESGGPDNEDYPLFRELWRYHFAT [KLHDC10]
2.99

Give its protein stability index value. Item: LVLSEDRKSVRYTRQKKNLPDSPL [TRIM15]
3.77

Would you kindly share the measured protein stability index for APFPNVSTSLLTSAGNRTHKARTR [ADAMTSL2] ?
4.64

* * *

- ASSAY PROCEDURE: protein stability index of a GFP-peptide fusion (GPS, HEK-293T) (PSI 1-6); higher = more stable
- RUN CONDITIONS: treatment: MLN4924 1 uM, 8 h; c terminus: a fixed tail appended
Entries and their protein stability index values follow.
Keep it simple and answer with nothing but the number.

Take a look at these entries with their results.
# SEQUENCE STRING, READOUT VALUE
measured = [
    ("DRVLRAMLKAEETCAPSVSYFKCV [CCND1]", 2.35),
    ("TRLEQEIATYRSLLEGQDAKMAGI [KRT15]", 3.72),
    ("RAWSQCGGGGLRAWSQRSAAGRVC [CPOX]", 2.88),
]

Consider the sequence PESVEASPVVVEKSNSYPHQLYTS [KMT2E] and give its measured protein stability index.
4.44

// protein stability index lookup, key: CLMIGRDLVRLLQNVARIPEFELL [INTS3]
2.24

* * *

- ASSAY PROCEDURE: protein stability index of a GFP-peptide fusion (GPS, HEK-293T) (PSI 1-6); higher = more stable
- RUN CONDITIONS: treatment: MLN4924 1 uM, 8 h; c terminus: a fixed tail appended
We use 3 as the dividing line for protein stability index: on or above the line is TRUE, below is FALSE.

Recorded results for 5 sequences are shown here.
# SEQUENCE STRING, QUALITATIVE LABEL
rows = [
    ("RGGSDPETTGIQIWSEVFTVEKPG [ATL3]", "TRUE"),
    ("TCLPLGVLMKGQHLHLETFKAVLD [PRAME]", "FALSE"),
    ("NQTAELRELLEFTHMYLQSDDEME [P3H4]", "TRUE"),
    ("RPASSGGAHTLVNHGYAEPAAGRE [KCNA3]", "TRUE"),
    ("KNRSFDIDAIYSVIDDAKQYVYIA [PLD5]", "FALSE"),
]

Textbook exercise: given the entry PSSNEEIRLVDDAFGKICHMVSDG [INTS4] , state whether its protein stability index is greater than or equal to 3.
TRUE

Does the sequence RDSESTRHDSETEDMLWDDLLHGP [PHTF1] have recorded protein stability index that is 3 or more?
TRUE
